Recorded measurements of composite z-score, one per entry
# testedTarget: Torsin-1A (Homo sapiens) (UniProt O14656)
# Sequence (O14656 whole entry, looked up): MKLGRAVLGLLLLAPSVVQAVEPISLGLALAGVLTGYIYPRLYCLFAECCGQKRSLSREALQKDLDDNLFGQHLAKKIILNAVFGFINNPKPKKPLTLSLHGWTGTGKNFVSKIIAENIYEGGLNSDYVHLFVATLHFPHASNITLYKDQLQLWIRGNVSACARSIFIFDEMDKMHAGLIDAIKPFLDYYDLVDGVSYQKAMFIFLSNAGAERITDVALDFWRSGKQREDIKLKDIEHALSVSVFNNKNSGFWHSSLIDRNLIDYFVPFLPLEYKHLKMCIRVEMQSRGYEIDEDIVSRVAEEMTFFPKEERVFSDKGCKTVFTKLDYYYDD
# measurementNotes: small-molecule binders of mutant TOR1A in lysate, primary screen, cell lysate, small-molecule microarray, COS7 lysate, 635/667 nm fluorescence (AID 1150);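 also: score pools 667 nm emission and signal to noise measuring lysate protein binding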
# measurementSetup: COS7 hTOR1A mutant lysate, 635 nm fluorescence, higher = more signal
Lab note: record just the number, no unit beside it.

Consider the reported composite z-score for these compounds:
CC(=O)Nc1cc(Br)ccc1C(=O)O
0.0517
Cc1ccc(S[C@]2(C(=O)NCCN3CCOCC3)CC(=O)N(Cc3cc(C(F)(F)F)cc(C(F)(F)F)c3)[C@@H]2c2ccc(CO)cc2I)cc1
0.561
COc1ccc([Si](C)(C)[C@@H]2[C@@H](CC(=O)N(CCO)Cc3ccccc3)O[C@]3(C(=O)N(C)c4ccccc43)[C@H]2C)cc1
0.152
C=C(COC)C(=O)CC[C@H](OC(C)=O)c1cccc(OCCO)c1
0.142
N#Cc1ccc(NN2C(C(O)C3CCCCC3)C=CC3C(=O)N(c4ccccc4)C(=O)C32)cc1 (stereo not given)
0.361
C=C(COC)/C(=C/C[C@H](OC(=O)c1ccncc1)c1cccc(OCCO)c1)c1cc(C(=O)OC)ccc1OC
0.849
COc1ccc(C#Cc2ccc3c(c2)[C@]2(C(=O)N3)[C@H](C(=O)NC[C@H](O)c3ccccc3)[C@H]3C(=O)O[C@H](c4ccccc4)[C@H](c4ccccc4)N3[C@@H]2c2ccccc2OCCO)cc1
0.535
N#Cc1ccc(NN2C(C(O)c3ccc([N+](=O)[O-])cc3)C=CC3C(=O)N(c4ccccc4)C(=O)C32)cc1 (stereo not given)
0.303

Moving on to another compound below.
What value of measured composite z-score is listed for O=C1OCCC=C[C@H]2OC34C=CCN(Cc5ccccc5)C(=O)[C@H]3N(CCCCCCO)C(=O)[C@@H]4C12 (stereo not given in full) ? -1.4
